Data provenance: BigSolDB 2.1

EXPERIMENTAL PARAMETERS: in n-propanol, 293.15 K
ASSAY READOUT: solubility (mole fraction)

stdin: State the recorded solubility (mole fraction) for this entry: CC(=O)[C@@]1(O)CC[C@H]2[C@@H]3CCC4=CC(=O)CC[C@]4(C)[C@H]3C(O)C[C@@]21C (stereo in doubt)
stdout: 0.0129

###

EXPERIMENTAL PARAMETERS: in chloroform, 283.15 K
ASSAY READOUT: solubility (mole fraction)
Could you respond with only the numeric value?

stdin: State the recorded solubility (mole fraction) for this entry: CC(=O)[C@@]1(O)CC[C@H]2[C@@H]3CCC4=CC(=O)CC[C@]4(C)[C@H]3C(O)C[C@@]21C (stereo in doubt)
stdout: 0.0134
